Measured values drawn from patent US20160041182A1 for this set.

Assay system: T1, mouse IL-17A (mouse, UniProt Q62386 26-158, limits assumed)
T1 construct: In SPR it was injected in solution, and no biotinylation is mentioned there; also called mIL-17A; mIL17A
T1 sequence (looked up): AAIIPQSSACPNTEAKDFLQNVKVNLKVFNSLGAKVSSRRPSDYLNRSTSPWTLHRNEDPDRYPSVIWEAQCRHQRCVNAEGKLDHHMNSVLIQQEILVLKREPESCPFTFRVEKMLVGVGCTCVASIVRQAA
Test description: SPR (ProteOn XPR-36), clone amine-coupled on chip, mIL-17A in solution, 1:1 Langmuir fit
Give log10(Kd) for every item shown.
Scale type: logarithmic (base 10). Underlying Kd unit: pM.

Some binders with known log10(Kd) results, for comparison:
| Binder | log10(Kd) |
| --- | --- |
| TP1KR9P61-A2 (designed binder, also called TCL14-His fusion protein) MLPAPKNLVVSRVTEDSARLSWTAPDAAFDSFAIEYFEDWWSGEAIVLTVPGSERSYDLTGLKPGTEYAVSIRGVKGGMPSAPLSAIFTT | 2.46 |
| TP1KR9P62-D8 (designed binder, also called TCL14-His fusion protein) MLPAPKNLVVSRVTEDSARLSWTAPDAAFDSFAIEYFEDWWSGEAIVLTVPGSERSYDLTGLKPGTEYGVSIRGVKGGLASPPLSAIFTT | 1.59 |
| TP1KR9P61-E2 (designed binder, also called TCL14-His fusion protein) MLPAPKNLVVSRVTEDSARLSWTAPDAAFDSFAIEYFEDWWSGEAIVLTVPGSERSYDLTGLKPGTEYAVSIRGVKGGMPSPPLSAIFTT | 2.43 |
| TP1KR9P62-A2 (designed binder, also called TCL14-His fusion protein) MLPALKNLVVSRVTEDSAHLSWTAPDAAFDSFAIEYSEDYWLGEAIVLTVPGSERSYDLTGLKPGTEYGVSIRGVKGGYPSPPLSAIFTT | 1.73 |

Provide log10(Kd) for all items below, preserving their order.
1. TP1KR9P62-E3 (designed binder, also called TCL14-His fusion protein) MLPAPKNLVVSRVTEDSARLSWTAPDAAFDSFGIEYFEDYWTGEAIVLTVPGSERSYDLTGLKPGTEYAVSIRGVKGGYPSAPLSAIFTT
2. TP1KR9P62-C3 (designed binder, also called TCL14-His fusion protein) MLPAPKNLVVSRVTEDSARLSWTAPDAAFDSFAIEYFEDWWSGEAIVLTVPGSERSYDLTGLKPGTEYSVTIRGVKGGPPSSPLSAIFTT
3. TP1KR9P62-H10 (designed binder, also called TCL14-His fusion protein) MLPAPKNLVVSRVTEDSARLSWTAPDAAFDSFAIEYFEDWWSGEAIVLTVPGSERSYDLTGLKPGTEYSVSIRGVKGGHPSVPLSAIFTT
4. TP1KR9P61-G4 (designed binder, also called TCL14-His fusion protein) MLPAPKNLVVSRVTEDSARLSWTAPDAAFDSFAIEYFEDWWSGEAIVLTVPGSERSYDLTGLKPGTEYAVSIRGVKGGYPSAPLSAIFTT

Result ::
1: 2.67; 2: 1.57; 3: 1.68; 4: 2.49
